molecular target: full-length FANCJ helicase (Homo sapiens); construct: Full length recombinant WRN [18], BLM [19], and FANCJ [20] proteins were purified from insect cells; made in house; host or cells: insect cells; experiment: Radiometric helicase assay, full-length FANCJ; assay type: biochemical; settings: full-length FANCJ 5 nM; FORKR 0.5 nM
Sequence (Q9BX63 whole entry): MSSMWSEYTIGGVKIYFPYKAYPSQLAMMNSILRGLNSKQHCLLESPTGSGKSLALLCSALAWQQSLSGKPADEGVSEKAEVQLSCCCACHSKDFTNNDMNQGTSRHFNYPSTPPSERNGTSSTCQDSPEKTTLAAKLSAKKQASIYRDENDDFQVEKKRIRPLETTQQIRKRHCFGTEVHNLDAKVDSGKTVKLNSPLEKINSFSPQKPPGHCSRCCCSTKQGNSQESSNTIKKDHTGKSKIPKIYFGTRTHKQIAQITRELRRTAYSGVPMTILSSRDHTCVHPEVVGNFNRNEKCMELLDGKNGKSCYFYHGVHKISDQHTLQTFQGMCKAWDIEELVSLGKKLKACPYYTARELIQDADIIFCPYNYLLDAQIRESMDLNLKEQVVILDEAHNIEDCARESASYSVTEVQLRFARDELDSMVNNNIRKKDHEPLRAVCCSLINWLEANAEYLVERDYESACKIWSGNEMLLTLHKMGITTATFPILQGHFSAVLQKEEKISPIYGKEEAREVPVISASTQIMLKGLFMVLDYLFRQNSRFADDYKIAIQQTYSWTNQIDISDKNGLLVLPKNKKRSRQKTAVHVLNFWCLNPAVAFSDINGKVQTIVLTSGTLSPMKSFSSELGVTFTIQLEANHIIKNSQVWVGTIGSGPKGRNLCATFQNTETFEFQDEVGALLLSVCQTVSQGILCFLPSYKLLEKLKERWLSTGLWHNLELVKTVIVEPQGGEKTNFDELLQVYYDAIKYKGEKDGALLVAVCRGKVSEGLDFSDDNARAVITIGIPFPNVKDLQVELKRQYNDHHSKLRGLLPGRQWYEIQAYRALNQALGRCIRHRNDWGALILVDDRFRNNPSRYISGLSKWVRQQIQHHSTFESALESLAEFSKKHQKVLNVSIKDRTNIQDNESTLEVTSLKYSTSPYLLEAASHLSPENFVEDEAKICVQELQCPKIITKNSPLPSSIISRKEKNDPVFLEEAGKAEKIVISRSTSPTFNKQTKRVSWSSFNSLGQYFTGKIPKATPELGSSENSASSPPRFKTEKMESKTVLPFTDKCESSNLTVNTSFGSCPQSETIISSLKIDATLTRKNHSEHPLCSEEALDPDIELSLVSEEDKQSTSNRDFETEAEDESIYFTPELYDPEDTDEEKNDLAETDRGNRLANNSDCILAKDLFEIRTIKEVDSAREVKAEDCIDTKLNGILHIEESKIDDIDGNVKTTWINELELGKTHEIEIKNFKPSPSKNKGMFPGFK
test readout: IC50 (µM)
Reply with just the number (in µM).

Some compounds with known IC50 results, for comparison:
INSERT INTO measurements (compound, value_observed) VALUES
  ('Cc1ccc(-c2csc(NS(=O)(=O)c3cccc(F)c3)n2)o1 [MLS002251300-02]', 28.5),
  ('COc1ccc2nc(O)c(-c3noc(-c4ccc(F)cc4)n3)cc2c1 [NCGC00029283-02]', 3.4);

Next compound, IC50 to be filled in.
Look up IC50 with full-length FANCJ helicase (Homo sapiens) for this compound: COc1ccc2nc(O)c(-c3noc(-c4ccccc4)n3)cc2c1 [NCGC00063279-02]
13.9

----------
biological target: GST-WRN500-946 helicase domain fragment (Homo sapiens, UniProt Q14191); construct: made in house; host or cells: insect cells; assay: Confirmatory fluorometric helicase screen, PubChem AID 720497; type: biochemical; details: 20 nM GST-WRN500-946, 100 nM FORKF, NA = Not Active, read-out: IC50 (μM) Assay ID 720497
Sequence (Q14191 500-946): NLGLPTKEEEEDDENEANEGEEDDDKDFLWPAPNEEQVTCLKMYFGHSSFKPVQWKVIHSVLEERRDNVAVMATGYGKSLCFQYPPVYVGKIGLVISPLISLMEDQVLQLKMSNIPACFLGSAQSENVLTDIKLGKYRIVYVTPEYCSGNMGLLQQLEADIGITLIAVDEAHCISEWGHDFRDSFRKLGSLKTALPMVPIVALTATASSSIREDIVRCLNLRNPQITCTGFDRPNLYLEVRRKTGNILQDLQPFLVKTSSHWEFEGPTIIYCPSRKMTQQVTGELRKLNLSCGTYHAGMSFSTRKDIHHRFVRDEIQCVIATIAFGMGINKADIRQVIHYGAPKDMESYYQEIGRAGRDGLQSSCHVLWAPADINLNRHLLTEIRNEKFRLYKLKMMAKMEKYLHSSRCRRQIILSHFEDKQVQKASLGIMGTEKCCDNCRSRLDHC
test readout: IC50 (µM)
Reply with just the number (in µM).

Some compounds with known IC50 results, for comparison:
INSERT INTO measurements (compound, value_observed) VALUES
  ('O=C(c1cccc(-n2cccc2)c1)N1CCN(S(=O)(=O)c2ccccc2)CC1', 4.3),
  ('Cc1ccc(-c2nc(SCc3ccc(Br)cc3)n3[nH]c(=O)cc3n2)cc1', 13.6),
  ('COC(=O)c1cc(NC(=O)c2ccc3c(c2)NC(=O)c2ccccc2S3)cc(C(=O)OC)c1', 13.6),
  ('COc1ccccc1Nc1ccc2c(O)cc(S(=O)(=O)O)cc2c1', 6.1),
  ('O=c1cc(N2CCNCC2)nc2sc(-c3ccncc3)nn12', 6.1),
  ('CCOc1ccc(-c2nc(SCC(=O)Nc3ccc(C)c(C)c3)n3[nH]c(=O)cc3n2)cc1', 15.2);

Using the record for CC1=C(C(=O)Nc2ccccc2)C(c2ccc[nH]2)n2ncnc2N1 (stereo not shown) , report its IC50.
7.6

Repeat with Cc1ccc(-c2csc(NS(=O)(=O)c3cccc(F)c3)n2)o1
24.1

Repeat with Cc1ccc(CN(C)C(=O)CCc2nc(O)c3c4c(sc3n2)CCCC4)o1
9.6

Repeat with COc1ccc2nc(O)c(-c3noc(-c4ccccc4)n3)cc2c1
21.5

----------
target: full-length WRN helicase (Homo sapiens); construct: Full length recombinant WRN [18], BLM [19], and FANCJ [20] proteins were purified from insect cells; made in house; host or cells: insect cells; test: Radiometric helicase inhibitor assay, full-length WRN unwinding of FORKR DNA substrate; assay type: biochemical; details: resynthesized or repurified compounds; full-length WRN; FORKR 0.5 nM; read-out: IC50 (μM): WRN
test readout: IC50 (µM)
Reply with just the number (in µM).

Some compounds with known IC50 results, for comparison:
INSERT INTO measurements (compound, subject_of_test, test_readout, value_observed) VALUES
  ('COc1ccc2nc(O)c(-c3noc(-c4ccc(F)cc4)n3)cc2c1 [NCGC00029283-02]', 'full-length WRN helicase (Homo sapiens)', 'IC50', 2.3),
  ('Cc1ccc(-c2csc(NS(=O)(=O)c3cccc(F)c3)n2)o1 [MLS002251300-02]', 'full-length WRN helicase (Homo sapiens)', 'IC50', 5);

Next compound, IC50 to be filled in.
Using the record for COc1ccc2nc(O)c(-c3noc(-c4ccccc4)n3)cc2c1 [NCGC00063279-02] , report its IC50.
13

----------
Target: full-length WRN helicase (Homo sapiens, UniProt Q14191)
Construct: Full length recombinant WRN [18], BLM [19], and FANCJ [20] proteins were purified from insect cells; made in house; host or cells: insect cells
Sequence (Q14191 whole entry): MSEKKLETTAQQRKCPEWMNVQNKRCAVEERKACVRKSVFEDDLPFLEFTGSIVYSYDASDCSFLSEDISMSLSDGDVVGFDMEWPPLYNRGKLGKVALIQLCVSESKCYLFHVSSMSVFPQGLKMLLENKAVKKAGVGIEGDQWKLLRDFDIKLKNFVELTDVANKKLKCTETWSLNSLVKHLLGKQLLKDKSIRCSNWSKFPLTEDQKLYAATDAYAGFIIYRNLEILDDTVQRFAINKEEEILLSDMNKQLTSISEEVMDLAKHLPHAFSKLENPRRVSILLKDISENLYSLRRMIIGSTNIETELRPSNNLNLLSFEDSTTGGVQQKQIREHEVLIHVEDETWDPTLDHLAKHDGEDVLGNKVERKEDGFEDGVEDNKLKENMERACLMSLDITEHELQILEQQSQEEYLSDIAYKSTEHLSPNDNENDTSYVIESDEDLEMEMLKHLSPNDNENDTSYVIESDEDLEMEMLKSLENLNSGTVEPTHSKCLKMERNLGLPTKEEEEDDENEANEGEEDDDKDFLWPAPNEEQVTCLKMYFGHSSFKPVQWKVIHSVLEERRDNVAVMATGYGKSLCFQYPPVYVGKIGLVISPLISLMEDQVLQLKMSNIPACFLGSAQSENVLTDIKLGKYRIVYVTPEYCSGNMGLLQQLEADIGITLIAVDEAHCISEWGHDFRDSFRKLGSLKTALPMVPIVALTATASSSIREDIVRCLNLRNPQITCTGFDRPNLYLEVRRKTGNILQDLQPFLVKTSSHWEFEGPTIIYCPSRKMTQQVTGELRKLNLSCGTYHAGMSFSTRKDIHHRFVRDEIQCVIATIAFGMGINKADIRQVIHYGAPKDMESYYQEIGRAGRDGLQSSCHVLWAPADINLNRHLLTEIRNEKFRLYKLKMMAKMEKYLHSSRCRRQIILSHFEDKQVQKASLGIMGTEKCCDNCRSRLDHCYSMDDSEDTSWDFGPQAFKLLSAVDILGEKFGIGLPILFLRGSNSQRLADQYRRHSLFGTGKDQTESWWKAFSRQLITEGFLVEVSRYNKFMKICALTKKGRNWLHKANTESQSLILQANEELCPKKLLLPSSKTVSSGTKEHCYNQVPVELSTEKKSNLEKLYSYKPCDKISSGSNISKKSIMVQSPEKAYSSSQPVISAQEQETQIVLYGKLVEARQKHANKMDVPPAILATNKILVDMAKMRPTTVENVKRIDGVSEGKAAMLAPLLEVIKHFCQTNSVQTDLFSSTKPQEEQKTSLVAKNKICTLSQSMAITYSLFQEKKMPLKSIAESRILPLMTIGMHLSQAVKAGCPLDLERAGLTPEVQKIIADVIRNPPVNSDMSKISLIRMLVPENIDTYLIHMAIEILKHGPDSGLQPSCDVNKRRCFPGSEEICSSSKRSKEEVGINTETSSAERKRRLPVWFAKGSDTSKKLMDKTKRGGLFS
Test: Radiometric helicase inhibitor reversibility assay (100-fold dilution)
Assay type: biochemical
Set-up: key: (-) = irreversible; (+) = minimally reversible; (++) = partially reversible; (+++) = reversible
Settings: WRN 100 nM preincubated at 10-fold IC50, diluted 100-fold; unwinding 0-16 min
Procedure: WRN (full length, 100 nM concentration) was incubated with each small molecule inhibitor at a concentration 10-fold higher than the IC50 for that inhibitor, in a 10 μL reaction at room temperature. 1.5 μL of this reaction was added to 148.5 μL of reaction salts with 2 mM ATP, 0.5 nM FORKR reducing the full length WRN concentration to 1 nM and the drug concentration to 10-fold less than its IC50. […]
test readout: Reversibility

INSERT INTO measurements (compound, value_observed) VALUES
  ('Cc1ccc(-c2nc(SCc3ccc(Br)cc3)n3[nH]c(=O)cc3n2)cc1', '-'),
  ('COc1ccc2nc(O)c(-c3noc(-c4ccc(F)cc4)n3)cc2c1', '++'),
  ('COc1ccc2nc(O)c(-c3noc(-c4ccccc4)n3)cc2c1', '+++'),
  ('Cc1ccc(N2CCN(c3cnn(-c4nc5ccccc5s4)c(=O)c3Cl)CC2C)cc1 (stereo not shown)', '+++');

----------
target: GST-WRN500-946 helicase domain fragment (Homo sapiens, UniProt Q14191); construct: made in house; host or cells: insect cells; test: High-throughput fluorometric helicase screen, PubChem AID 651768; assay type: biochemical; details: initial qHTS; 20 nM GST-WRN500-946; 100 nM FORKF; NA = Not Active; read-out: IC50 (μM) Assay ID 651768
test readout: IC50 (µM)
Reply with just the number (in µM).

Some compounds with known IC50 results, for comparison:
INSERT INTO assay_data (compound, subject_of_test, test_readout, value_observed) VALUES
  ('Cc1ccc(N2CCN(c3cnn(-c4nc5ccccc5s4)c(=O)c3Cl)CC2C)cc1 (centres unmarked)', 'GST-WRN500-946 helicase domain fragment (Homo sapiens, UniProt Q14191)', 'IC50', 35.4),
  ('CCOc1ccc(-c2nc(SCC(=O)Nc3ccc(C)c(C)c3)n3[nH]c(=O)cc3n2)cc1', 'GST-WRN500-946 helicase domain fragment (Homo sapiens, UniProt Q14191)', 'IC50', 21.1),
  ('COc1ccc2nc(O)c(-c3noc(-c4ccccc4)n3)cc2c1', 'GST-WRN500-946 helicase domain fragment (Homo sapiens, UniProt Q14191)', 'IC50', 21.5),
  ('Cc1ccc(-c2nc(SCc3ccc(Br)cc3)n3[nH]c(=O)cc3n2)cc1', 'GST-WRN500-946 helicase domain fragment (Homo sapiens, UniProt Q14191)', 'IC50', 16.8),
  ('O=c1cc(N2CCNCC2)nc2sc(-c3ccncc3)nn12', 'GST-WRN500-946 helicase domain fragment (Homo sapiens, UniProt Q14191)', 'IC50', 7.5);

Using the record for Cc1ccc(CN(C)C(=O)CCc2nc(O)c3c4c(sc3n2)CCCC4)o1 , report its IC50.
44.6

Repeat with Cc1ccc(C(=O)Nc2nnc([S+](=O)([O-])N(C)Cc3ccco3)s2)cc1
37.6

Repeat with Cc1ccc(-c2csc(NS(=O)(=O)c3cccc(F)c3)n2)o1
31.6

----------
Below, each entry is listed with its recorded IC50.
molecular target: full-length WRN helicase (Homo sapiens, UniProt Q14191); construct: Full length recombinant WRN [18], BLM [19], and FANCJ [20] proteins were purified from insect cells; made in house; host or cells: insect cells; assay: Radiometric helicase inhibitor assay, full-length WRN unwinding of FORKR DNA substrate; assay type: biochemical; conditions: radiometric assay; full-length WRN 1 nM; FORKR 0.5 nM; compound 0-100 μM; read-out: IC50
Reply with just the number (in µM).

Using the record for CN(Cc1ccco1)[S+](=O)([O-])c1nnc(NC(=O)c2cccc(Cl)c2)s1 , report its IC50.
15

----------
target: full-length WRN helicase (Homo sapiens, UniProt Q14191); construct: Full length recombinant WRN [18], BLM [19], and FANCJ [20] proteins were purified from insect cells; made in house; host or cells: insect cells; assay: Radiometric helicase inhibitor assay, full-length WRN unwinding of FORKR DNA substrate; type: biochemical; conditions: read-out: % Control WRN Helicase Activity;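 also: WRN preincubated with compound 15 min at room temperature, then unwinding run 15 min at 37 °C with 2 mM ATP, relative to WRN unwinding without compound (100%)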
test readout: remaining activity at 50 µM (%)
Reply with just the number (in %).

Some molecules with known remaining activity at 50 µM results, for comparison:
INSERT INTO measurements (molecule, value_observed) VALUES
  ('COc1ccc(-c2cc(C(F)(F)F)nc([S+](=O)([O-])CCC(=O)Nc3ccc(C)cc3)n2)cc1 [NCGC00317517-02]', 93),
  ('CN(C)CC(C(=O)Cc1ccccc1)c1ccccc1 (centres unmarked) [MLS002608145-02]', 93),
  ('COc1ccc(N[S+](=O)([O-])c2cc(C(=O)Nc3ccc4nc(C)sc4c3)ccc2C)cc1 [NCGC00348187-01]', 83);

Using the record for Cc1ccc(C(=O)Nc2nnc([S+](=O)([O-])N(C)Cc3ccco3)s2)cc1 [NCGC00120906-02] , report its remaining activity at 50 µM.
33

Repeat with CCc1ccc(NC(=O)c2ccc3c(O)c([S+](=O)([O-])c4ccc(Cl)cc4)c(=O)[nH]c3c2)cc1 [NCGC00123016-02]
20
